Each entry below carries its recorded Kd.
- targetOrTestSystem: monomeric alpha-synuclein (UniProt P37840 1-140)
- measurementDescription: SPR, captured mAb

binder: ACI-8032-6301G2-Ab2 (antibody, V domains shown, mouse hybridoma mAb; VH/VL only; also called 6301G2D11) VH: EVQLQQSGPELVKPGASVKISCKASGYTFTDYFMNWVKQSHGKSLEWIGDINPNIGVTNYNPKFKDRATLTVDKSSSSAYMELRSLTSEDSTVYYCARGGGSNPLYYAMDYWGQGTSVTVSS VL: DIVMSQSPSSLAVSAGEKVTMSCKSSQSLLNSRTRKNYLAWYQQKPGQSPKLLIYWASTRESGVPDRFTGSGSGTDFTLTISSVQAEDLAVYFCKQSYDLWTFGGGTKLEIK
Kd: 606 nM

binder: ACI-8032-6307F1-Ab2 (antibody, V domains shown, mouse hybridoma mAb; VH/VL only; also called 6307F1H10) VH: QVQLQQSGAELARPGASVKLSCKASGYTFTSYGMSWVKQRTGQGLEWIGEIYPRSGNTYYNEKFKGKATLTSDKSSSTSYMELRSLTSEDSAVYFCASESYYGDYAWYFDVWGTGTTVTVSS VL: DVLMTQTPLSLPVSLGDQASISCRSSQSVVHSNGITYLEWYLQKPGQSPKLLIYKVSNRFSGVPDRFSGSGSGTYFTLKISRVEAEDLGVYYCFQGSHVPPTFGGGTKLEIK
Kd: 19 nM

binder: ACI-7079-3103D9-Ab1 (antibody, V domains shown, mouse hybridoma mAb; VH/VL only; also called 3103D9C9) VH: QVSLKESGPGILQPSQTLSLTCSFSGFSLSTFGMGVGWIRQPSGKGLDWLTHIWWDDDKYYNPGLKSRLTISKDTSKNQVFLEIANVDTADTATYYCARIGDYYGTRGYFDVWGTGTTVTVSS VL: DIVMTQSPSSLTMSLGQTVTMSCKSSQSLLNSSNQKNHLAWYQQRPGQSPKLLVYFASTRESGVPERFIGGGSGTDFTLTISNVQSEDLTDYFCQQHYSTPYTFGGGTKLEIK
Kd: 0.73 nM
